study.system: Cytochrome P450 2C9 (Homo sapiens)
test.description: blockers of cytochrome P450 2C9 activity – biochemical, luminescence, ADME assay, primary screen (AID 777)
test.settings: CYP2C9 Supersomes, luciferin-H conversion, at 5 µM, stronger effect = higher value
The campaign covered roughly 96,000 compounds. About 19,000 (20%) were called active. Not all results are given here.
Label True when inhibition is at or above 10%; anything below gets False.

INSERT INTO results (compound, study_system, label) VALUES
  ('COc1ccc(C(=O)NCCc2ccc(S(N)(=O)=O)cc2)cc1OC', 'Cytochrome P450 2C9 (Homo sapiens)', 'False'),
  ('COc1ccc(NC(=O)C(CC(C)C)NS(=O)(=O)c2ccc3c(c2)CCN3C(C)=O)cc1OC (stereo unspecified)', 'Cytochrome P450 2C9 (Homo sapiens)', 'False'),
  ('O=C(NNS(=O)(=O)c1ccc(Cl)cc1)C1CCN(Cc2ccccc2)CC1', 'Cytochrome P450 2C9 (Homo sapiens)', 'True'),
  ('O=C(CSc1ncccn1)NCCc1ccccc1', 'Cytochrome P450 2C9 (Homo sapiens)', 'True'),
  ('COc1ccc(CCNS(=O)(=O)c2ccc(F)cc2)cc1OC', 'Cytochrome P450 2C9 (Homo sapiens)', 'True'),
  ('COc1ccccc1Nc1ncnc2c1oc1ccccc12', 'Cytochrome P450 2C9 (Homo sapiens)', 'True'),
  ('CCC1SC2=NCCN2C1(O)c1ccc(Cl)cc1 (stereo unspecified)', 'Cytochrome P450 2C9 (Homo sapiens)', 'True'),
  ('c1ccc2c(c1)OCC(CNc1ncnc3nc[nH]c13)O2 (stereo unspecified)', 'Cytochrome P450 2C9 (Homo sapiens)', 'True'),
  ('Cc1nc2cc(NC(=O)CSc3nc4c(C)cccc4cc3C#N)ccc2s1', 'Cytochrome P450 2C9 (Homo sapiens)', 'True'),
  ('Cc1cc2cc3c(cc2nc1SCC(=O)Nc1c(C)cccc1C)CCC3', 'Cytochrome P450 2C9 (Homo sapiens)', 'True'),
  ('CCOC(=O)C1CCN(C(=O)Cc2c(C(=O)O)[nH]c3ccccc23)CC1', 'Cytochrome P450 2C9 (Homo sapiens)', 'False');

---

study.system: Cytochrome P450 2C9 (Homo sapiens) (UniProt P11712)
Sequence (P11712 whole entry, looked up): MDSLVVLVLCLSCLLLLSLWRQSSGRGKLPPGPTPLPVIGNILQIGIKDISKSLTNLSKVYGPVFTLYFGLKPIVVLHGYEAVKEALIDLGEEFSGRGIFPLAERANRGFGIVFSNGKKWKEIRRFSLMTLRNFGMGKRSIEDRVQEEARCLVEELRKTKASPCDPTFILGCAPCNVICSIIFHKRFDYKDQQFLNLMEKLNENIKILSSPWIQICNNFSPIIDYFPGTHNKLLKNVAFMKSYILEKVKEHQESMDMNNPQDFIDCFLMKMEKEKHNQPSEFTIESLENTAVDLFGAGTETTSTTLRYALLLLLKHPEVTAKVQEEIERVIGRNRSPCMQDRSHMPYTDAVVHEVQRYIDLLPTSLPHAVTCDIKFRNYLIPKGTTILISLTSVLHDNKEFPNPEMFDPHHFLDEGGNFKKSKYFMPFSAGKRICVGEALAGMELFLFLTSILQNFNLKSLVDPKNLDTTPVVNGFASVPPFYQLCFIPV
test.description: blockers of cytochrome P450 2C9 activity – biochemical, luminescence, ADME assay, primary screen (AID 777)
test.settings: CYP2C9 Supersomes, luciferin-H conversion, at 5 µM, stronger effect = higher value
The whole screen tested about 96,000 compounds, of which about 19,000 (20%) were called active. Only a sample is shown.
measure: inhibition (%)

INSERT INTO assay_data (compound, study_system, measure, numeric_result) VALUES
  ('Cc1cc(NC(=O)c2cccc(N3C(=O)CCC3=O)c2)no1', 'Cytochrome P450 2C9 (Homo sapiens) (UniProt P11712)', 'inhibition', 3.5),
  ('COc1ccc(OC)c(NC(=O)c2cnn(-c3ccccc3Cl)c2NC(=O)c2ccco2)c1', 'Cytochrome P450 2C9 (Homo sapiens) (UniProt P11712)', 'inhibition', 24.5),
  ('COc1nc(N=C(N)N)nc2c(C)cccc12', 'Cytochrome P450 2C9 (Homo sapiens) (UniProt P11712)', 'inhibition', -9.5),
  ('O=S(=O)(c1cccc2nonc12)N1CCN(c2cccc(Cl)c2)CC1', 'Cytochrome P450 2C9 (Homo sapiens) (UniProt P11712)', 'inhibition', 12.3),
  ('COCCNc1nc(-n2nc(C)cc2C)nc2sc3c(c12)CCCC3', 'Cytochrome P450 2C9 (Homo sapiens) (UniProt P11712)', 'inhibition', 16.5),
  ('COCCn1c(C)cc(C(=O)CSc2ncnc3sc4c(c23)CCC4)c1C', 'Cytochrome P450 2C9 (Homo sapiens) (UniProt P11712)', 'inhibition', -41.7),
  ('CCOC(=O)C(CCOc1cccc(CC)c1)C(=O)OCC', 'Cytochrome P450 2C9 (Homo sapiens) (UniProt P11712)', 'inhibition', 57),
  ('CCOC(=O)c1c(C)n(C)c2ccc(OC)c(NC(=O)CN3CCC4(CC3)OCCO4)c12', 'Cytochrome P450 2C9 (Homo sapiens) (UniProt P11712)', 'inhibition', 18.3),
  ('Cc1cc(=O)[nH]c(SCC(=O)N2c3ccccc3CC2C)n1 (stereo unspecified)', 'Cytochrome P450 2C9 (Homo sapiens) (UniProt P11712)', 'inhibition', 8),
  ('CCOc1cc(C2C(C(=O)OC)=CN(C3CCCC3)C=C2C(=O)OC)cc(Br)c1O', 'Cytochrome P450 2C9 (Homo sapiens) (UniProt P11712)', 'inhibition', -9.6),
  ('CCOC(=O)n1c(SCC(=O)N(CC)CC)nc2ccccc21', 'Cytochrome P450 2C9 (Homo sapiens) (UniProt P11712)', 'inhibition', 30.9);

Provenance of the data: PubChem BioAssay AID777
